System: HaCat
assayExplanation: Cytotoxic Profiling of Annotated Libraries Using Quantitative High-Throughput Screening (AID 1296008); note: nearly all actives have a fitted effect of over 60% in size
settings: Five cell lines viability, CellTiter-Glo ATP luminescence, 48-72 h
Records with an inconclusive call do not appear. Activity calls are given as the source filed them. Calls come from the whole dose curve; as a rule, active = well fitted inhibition curve with a large enough effect; inconclusive = small, poorly fitted or top-dose-only effect; inactive = flat fitted curve, though single readings scatter.
observationType: outcome

Worked examples, 4 compounds total:
Cc1ncc([N+](=O)[O-])n1C[C@H](O)CN1CCOCC1 : inactive
C=C1CC2C3(C)C(O)CC(=O)C(C)(C)C3C(O)C(OC(C)=O)C2(C)C2C(=O)OC(C)(C(=O)OC)C(=O)C12C (stereo not given) : inactive
C=C1CCC2C(C)(C(=O)O)CCCC2(C)C1CC/C(C)=C\CO (stereo not given) : inactive
C=C1C(O)CCC2(C)CC3(OC)OC(=O)C(C)=C3CC12 (stereo not given) : inactive

## Input Need outcome of CCCC/C=C\CCCCCc1cc(=O)c2ccccc2n1C , thanks.
## Output inactive

====

assayExplanation: Primary fluorescence-based thiol-reactive (MSTI) qHTS assay for identification of artifact compounds. (AID 1845221); note: nearly all actives have a fitted effect of over 65% in size
settings: MSTI thiol-reactivity probe, 1 h; series mostly up to 53.8 µM
Source text: PI: Alexander Tropsha Ph.D. UNC Eshelman School of Pharmacy University of North Carolina, Chapel Hill, North Carolina Hits from high-throughput screening (HTS) of chemical libraries are often false positives due to their interference with the assay detection technology. […] Using these curated datasets, we developed and validated several Quantitative Structure-Interference Relationship (QSIR) models to predict nuisance behavior. […]
Results filed as inconclusive are left out. Calls of active or inactive are those of the source. Calls follow the shape of the dose curve; as a rule, active = well fitted inhibition curve with a large enough effect; inconclusive = small, poorly fitted or top-dose-only effect; inactive = no such curve, though single readings can be large or run the other way.
Pick one: True (active), False (inactive)

## Input # lookup: test call for Cn1cc(Nc2cnccc2C(=O)O)c2cccnc21
## Output False

## Input Tell me the recorded outcome of this test for CCOC(=O)C1=C(N)Oc2ccc(Cl)cc2C1C(C#N)C(=O)OCC (centres undefined) .
## Output False

## Input Dear colleague, could you share the recorded outcome for N#CC1C(=O)N=C(c2cc(Cl)ccc2O)C=C1c1cc(OCc2ccccc2)cc(OCc2ccccc2)c1 (centres undefined) when you have a moment?
## Output False

## Input Field: outcome | Entry: CC(C)c1cc2c(c(O)c1O)[C@@]13CCCC(C)(C)C1[C@@H](O)[C@@H]2OC3=O (some centres undefined)
## Output True

## Input Given CC(=O)OCC1=CCC2C(C)(C)CCCC2(C)C12CCC(C)(CC(=O)O)O2 (centres undefined) , state the outcome it received in this test.
## Output False

## Input Given COc1cnc(-c2ccc(Cn3c(CC(C)(C)C(=O)O)c(SC(C)(C)C)c4cc(OC[C@@H]5Cc6ccccc6N5C(C)=O)ccc43)cc2)nc1 , state the outcome it received in this test.
## Output False

## Input For this compound, state the assay outcome: CCC1OC(=O)C(C)CC(C)C(=O)/C(C)=C/C(C)C(=O)/C=C/C1(C)O (centres undefined)
## Output False

## Input For this compound, state the assay outcome: C=C1C(OC(C)=O)[C@@]23CCC4[C@](C)(C(=O)O)CCC[C@@]4(C)[C@]2(O)CC[C@H]1C3 (some centres undefined)
## Output False

## Input Assay outcome for O=C(O)CC/C=C\C[C@H]1CO[C@@H](c2ccccc2Cl)O[C@H]1c1ccccc1O : what was it?
## Output False

====

testedSystem: Calcium and integrin-binding protein 1 (Homo sapiens) (UniProt Q99828)
Sequence (Q99828 whole entry, looked up): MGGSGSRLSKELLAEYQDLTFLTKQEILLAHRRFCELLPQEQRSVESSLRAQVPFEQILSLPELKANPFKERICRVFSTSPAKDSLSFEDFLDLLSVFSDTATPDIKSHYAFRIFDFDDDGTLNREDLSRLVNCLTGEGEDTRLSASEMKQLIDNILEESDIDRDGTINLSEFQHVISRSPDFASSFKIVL
assayExplanation: Primary qHTS for Identification of Calcium Integrin Binding Protein 1 (CIB1) Competitor (AID 1508620);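 note: GST tagged CIB1 binding a fluorescein labelled alphaIIb integrin peptide tracer; top concentration of the series differs between compounds; % is set by controls: 0 for no effect and ±100 for the full control effect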
settings: CIB1-GST / FITC-alphaIIb peptide fluorescence polarization; series mostly up to 57.7 µM
Results filed as inconclusive are left out. Active and inactive are the calls of the source. Calls follow the shape of the dose curve; as a rule, active = well fitted inhibition curve with a large enough effect; inconclusive = small, poorly fitted or top-dose-only effect; inactive = flat fitted curve, though single readings scatter.
observationType: activity change, negative = inhibition

COC(=O)[C@@H](NC(=O)[C@H](CC(C)C)NC(=O)N(Cc1ccccc1)C[C@@H](O)[C@H](Cc1ccccc1)NC(=O)OC(C)(C)C)C(C)C : inactive
C/C=C(/C)C(=O)OC1CC(C)(C)CC2C3=CCC4C5(C)CCC(OC6OC(C)C(OC7OC(C(=O)O)C(O)C(OC8OC(CO)C(O)C(O)C8OC8OC(CO)C(O)C(O)C8O)C7O)C(O)C6O)C(C)(C)C5CCC4(C)C3(C)C(OC(=O)/C=C/C=C/C=C/CCC)C(OC(C)=O)C12CO (stereo not drawn) : 0.802% [at 12.4 µM] (inactive)
CC1CCC2C(C)(C)[C@H](O)CC[C@]2(C)C12Cc1c(O)cc3c(c1O2)CN(C(CCC(=O)O)C(=O)O)C3=O (stereo partly drawn) : inactive

====

Tested on: C33A
assayExplanation: Primary qHTS to identify gynecologic anti-cancer compounds using libraries of approved drugs and bioactive compounds (AID 1345084); note: % is set by controls: 0 for no effect and ±100 for the full control effect; nearly all actives have a fitted effect of over 55% in size
settings: Gynecologic cancer cell panel viability, ATPlite luminescence, 48 h; series mostly up to 57.5 µM
Records with an inconclusive call do not appear. Active and inactive are the calls of the source. Calls follow the shape of the dose curve; as a rule, active = well fitted cell-killing curve with a large enough effect; inconclusive = small, poorly fitted or top-dose-only effect, or effect the other way; inactive = flat fitted curve, though single readings scatter.
observationType: activity change, negative = cytotoxicity

C[C@@H]1O[C@@H](O[C@@H]2[C@@H](O)[C@H](O[C@H]3[C@H](O[C@H]4CC[C@@]5(C)C(CC[C@]6(C)C5CC=C5[C@@H]7CC(C)(C)CC[C@]7(C(=O)O[C@@H]7O[C@H](CO)[C@@H](O)[C@H](O)[C@H]7O)CC[C@]56C)C4(C)C)O[C@H](C(=O)O)[C@@H](O)[C@@H]3O)OC[C@H]2O)[C@H](O)[C@H](O)[C@H]1O (some centres undefined) : -13.9% [at 11.6 µM] (inactive)
CC1=CC(=O)C2C(C)(C)CCC[C@]2(C)[C@H]1CC[C@H](C)CC(=O)O (some centres undefined) : inactive
COc1ccc2[nH]c(S(=O)Cc3ncc(C)c(OC)c3C)nc2c1 (centres undefined) : inactive
COC(=O)C1=CO[C@@H](O[C@@H]2O[C@H](CO)[C@@H](O)[C@H](O)[C@H]2O)[C@H]2[C@@H]1[C@H](O)[C@H](O)[C@]2(C)O : inactive

====

Test system: HeLa
assayExplanation: Primary qHTS to identify gynecologic anti-cancer compounds using libraries of approved drugs and bioactive compounds (AID 1345084); note: % is set by controls: 0 for no effect and ±100 for the full control effect; nearly all actives have a fitted effect of over 55% in size
settings: Gynecologic cancer cell panel viability, ATPlite luminescence, 48 h; series mostly up to 57.5 µM
Results filed as inconclusive are left out. Active and inactive are the calls of the source. Calls come from the whole dose curve; as a rule, active = well fitted cell-killing curve with a large enough effect; inconclusive = small, poorly fitted or top-dose-only effect, or effect the other way; inactive = flat fitted curve, though single readings scatter.
observationType: activity change, negative = cytotoxicity

Recorded activity change, negative = cytotoxicity, per entry:
O=C(Cc1ccc(Cl)cc1)Nc1cnccc1C(=O)O : inactive
C[C@@]12CC3(S(=O)(=O)O)OC(O1)[C@]1(COC(=O)c4ccccc4)[C@H]3C[C@]21O[C@@H]1O[C@H](CO)[C@@H](O)[C@H](O)[C@H]1O : inactive
C=C1C(=O)O[C@@H]2C[C@]3(C)[C@@H](CCC(C)=O)[C@@H]3C[C@H]12 : inactive
Cc1cc(O[C@@H]2O[C@H](COC(=O)CC(=O)O)[C@@H](O)[C@H](O)[C@H]2O)c(C(C)C)cc1O : inactive
CC(=O)O[C@@H]1[C@H](O[C@@H]2OC[C@](O)(CO)[C@H]2O)[C@@H](O[C@@H]2O[C@@H](C)[C@H](O)[C@@H](O[C@@H]3O[C@H](CO)[C@@H](O)[C@H](O)[C@H]3O)[C@H]2O)[C@H](OC(=O)[C@]23CCC(C)(C)C[C@H]2C2=CCC4[C@@]5(C)C[C@H](O)[C@H](O[C@@H]6O[C@H](C(=O)O)[C@@H](O)[C@H](O)[C@H]6O)[C@@](C)(C(=O)O)C5CC[C@@]4(C)[C@]2(C)CC3)O[C@@H]1C (stereo not given in full) : -1.07% [at 6.55 µM] (inactive)

Would you be so kind as to report activity change, negative = cytotoxicity for each listed record?
1. COc1cnc(-c2ccc(Cn3c(CC(C)(C)C(=O)O)c(SC(C)(C)C)c4cc(OC[C@@H]5Cc6ccccc6N5C(C)=O)ccc43)cc2)nc1
2. CC1(C)CC[C@]2(C(=O)O[C@@H]3O[C@H](CO)[C@@H](O)[C@H](O)[C@H]3O)CC[C@]3(C)C(=CCC4[C@@]5(C)C[C@H](O)[C@H](O[C@@H]6OC[C@@H](O)[C@H](O)[C@H]6O)[C@@](C)(CO)C5CC[C@]43C)C2C1 (stereo not given in full)
3. C[C@@H]1O[C@@H](O[C@H]2[C@@H]3C=CO[C@@H](O[C@@H]4O[C@H](CO)[C@@H](O)[C@H](O)[C@H]4O)[C@@H]3[C@@]3(CO)O[C@@H]23)[C@H](O)[C@H](OC(=O)/C=C/c2ccc(O)cc2)[C@H]1OC(=O)/C=C/c1ccc(O)cc1
4. COc1ccc(Oc2c(Cl)cnn(C3c4ccccc4-c4ccccc43)c2=O)cc1

## Output
1. inactive
2. 24.4% [at 11.6 µM] (inactive)
3. inactive
4. inactive

## Input Look at this compound and give its reported activity change, negative = cytotoxicity. C[C@@H]1O[C@@H](O[C@H]2[C@H](O[C@H]3[C@H](O[C@H]4CC[C@@]5(C)C(CC[C@]6(C)C5CC=C5[C@@H]7CC(C)(C)C[C@@H](O)[C@]7(C)CC[C@]56C)[C@@]4(C)CO)O[C@H](C(=O)O)[C@@H](O)[C@@H]3O)O[C@H](CO)[C@H](O)[C@@H]2O)[C@H](O)[C@H](O)[C@H]1O (stereo not given in full)
## Output 7.52% [at 11.6 µM] (inactive)
